assay: Plasma pharmacokinetics after multiple ascending doses (MAD), phase 1; format: in vivo, human (healthy adult participants); details: human, plasma, iv, 200 mg, Last q6h dose (day 9), 7-day MAD 200 mg q6h × 7, n = 5, median (range); read-out: Tmax
Where a SMILES comes first, the peptide text is derived from it. Bridges are numbered along the chain shown (N, C = ends). [ ]: non-standard residue; d: D form. The star is where a group is joined. X1 = O=C(c1ccc(Cl)cc1Cl)*; Dab = NCC[C@H](N)C(=O)O; Abu = CC[C@H](N)C(=O)O; Dap = NC[C@H](N)C(=O)O
assay_readout: Tmax (h)

molecule="CC[C@@H]1NC(=O)[C@@H](CC(C)C)NC(=O)[C@H](CCN)NC(=O)[C@@H](NC(=O)[C@H](CN)NC(=O)[C@@H](NC(=O)[C@H](CCN)NC(=O)c2ccc(Cl)cc2Cl)[C@@H](C)O)CCNC(=O)[C@H]([C@@H](C)O)NC(=O)[C@H](CCN)NC(=O)[C@H](CCN)NC1=O [BRII-693] (X1-[Dab]T[Dap][Dab][Dab][dL][Abu][Dab][Dab]T; lactam 4-C; N-terminus assumed)" unit_abbreviation=h result=1.1

====

Test: Plasma pharmacokinetics after single ascending doses (SAD), phase 1
Assay type: in vivo, human (healthy adult participants)
Details: human, single 1-h IV infusion 100 mg, plasma, n = 6, median (range)
Protocol: Participants were then discharged on day 3. Plasma and urine PK parameters were summarized for each cohort using descriptive statistics. Analyses using linear models were performed to assess dose proportionality (both single-dose cohorts 1–7 and multiple-dose cohorts 8–10). Dose-linearity of Cmax and AUC across the dose range was assessed by fitting the power model with ln-transformed parameter as response variables and ln-transformed dose (continuous variable) as a fixed effect. […]
Where a SMILES comes first, the peptide text is derived from it. Bridges are numbered along the chain shown (N, C = ends). [ ]: non-standard residue; d: D form. The star is where a group is joined. X1 = O=C(c1ccc(Cl)cc1Cl)*; Dab = NCC[C@H](N)C(=O)O; Abu = CC[C@H](N)C(=O)O; Dap = NC[C@H](N)C(=O)O
assay_readout: Tmax (h)

compound="CC[C@@H]1NC(=O)[C@@H](CC(C)C)NC(=O)[C@H](CCN)NC(=O)[C@@H](NC(=O)[C@H](CN)NC(=O)[C@@H](NC(=O)[C@H](CCN)NC(=O)c2ccc(Cl)cc2Cl)[C@@H](C)O)CCNC(=O)[C@H]([C@@H](C)O)NC(=O)[C@H](CCN)NC(=O)[C@H](CCN)NC1=O [BRII-693] (X1-[Dab]T[Dap][Dab][Dab][dL][Abu][Dab][Dab]T; lactam 4-C; N-terminus assumed)" assay_readout=Tmax result=1.13

====

assay: Plasma pharmacokinetics after single ascending doses (SAD), phase 1; assay type: in vivo, human (healthy adult participants); conditions: human, plasma, single 1-h IV infusion 200 mg, volume of distribution during terminal phase, n = 6, arithmetic mean ± SD, read-out: VZ
Where a SMILES comes first, the peptide text is derived from it. Bridges are numbered along the chain shown (N, C = ends). [ ]: non-standard residue; d: D form. The star is where a group is joined. X1 = O=C(c1ccc(Cl)cc1Cl)*; Dab = NCC[C@H](N)C(=O)O; Abu = CC[C@H](N)C(=O)O; Dap = NC[C@H](N)C(=O)O
assay_readout: Vd (L)

molecule="CC[C@@H]1NC(=O)[C@@H](CC(C)C)NC(=O)[C@H](CCN)NC(=O)[C@@H](NC(=O)[C@H](CN)NC(=O)[C@@H](NC(=O)[C@H](CCN)NC(=O)c2ccc(Cl)cc2Cl)[C@@H](C)O)CCNC(=O)[C@H]([C@@H](C)O)NC(=O)[C@H](CCN)NC(=O)[C@H](CCN)NC1=O [BRII-693] (X1-[Dab]T[Dap][Dab][Dab][dL][Abu][Dab][Dab]T; lactam 4-C; N-terminus assumed)" result=21.3

====

assay: Plasma pharmacokinetics after single ascending doses (SAD), phase 1; format: in vivo, human (healthy adult participants); conditions: human, plasma, single 1-h IV infusion 10 mg, total clearance, n = 6, arithmetic mean ± SD
Where a SMILES comes first, the peptide text is derived from it. Bridges are numbered along the chain shown (N, C = ends). [ ]: non-standard residue; d: D form. The star is where a group is joined. X1 = O=C(c1ccc(Cl)cc1Cl)*; Dab = NCC[C@H](N)C(=O)O; Abu = CC[C@H](N)C(=O)O; Dap = NC[C@H](N)C(=O)O
assay_readout: clearance

compound="CC[C@@H]1NC(=O)[C@@H](CC(C)C)NC(=O)[C@H](CCN)NC(=O)[C@@H](NC(=O)[C@H](CN)NC(=O)[C@@H](NC(=O)[C@H](CCN)NC(=O)c2ccc(Cl)cc2Cl)[C@@H](C)O)CCNC(=O)[C@H]([C@@H](C)O)NC(=O)[C@H](CCN)NC(=O)[C@H](CCN)NC1=O [BRII-693] (X1-[Dab]T[Dap][Dab][Dab][dL][Abu][Dab][Dab]T; lactam 4-C; N-terminus assumed)" result="63.8 mL/min"

====

experiment: Plasma pharmacokinetics after single ascending doses (SAD), phase 1; format: in vivo, human (healthy adult participants); details: human, single 1-h IV infusion 50 mg, plasma, n = 6, arithmetic mean ± SD, read-out: AUC0–6h
Where a SMILES comes first, the peptide text is derived from it. Bridges are numbered along the chain shown (N, C = ends). [ ]: non-standard residue; d: D form. The star is where a group is joined. X1 = O=C(c1ccc(Cl)cc1Cl)*; Dab = NCC[C@H](N)C(=O)O; Abu = CC[C@H](N)C(=O)O; Dap = NC[C@H](N)C(=O)O
assay_readout: AUC(0-t)

compound="CC[C@@H]1NC(=O)[C@@H](CC(C)C)NC(=O)[C@H](CCN)NC(=O)[C@@H](NC(=O)[C@H](CN)NC(=O)[C@@H](NC(=O)[C@H](CCN)NC(=O)c2ccc(Cl)cc2Cl)[C@@H](C)O)CCNC(=O)[C@H]([C@@H](C)O)NC(=O)[C@H](CCN)NC(=O)[C@H](CCN)NC1=O [BRII-693] (X1-[Dab]T[Dap][Dab][Dab][dL][Abu][Dab][Dab]T; lactam 4-C; N-terminus assumed)" result="9160 ng·h/mL"

====

experiment: Plasma pharmacokinetics after multiple ascending doses (MAD), phase 1; type: in vivo, human (healthy adult participants); conditions: human, plasma, iv, 200 mg, Last q6h dose (day 9), 7-day MAD 200 mg q6h × 7, n = 5, arithmetic mean ± SD
Where a SMILES comes first, the peptide text is derived from it. Bridges are numbered along the chain shown (N, C = ends). [ ]: non-standard residue; d: D form. The star is where a group is joined. X1 = O=C(c1ccc(Cl)cc1Cl)*; Dab = NCC[C@H](N)C(=O)O; Abu = CC[C@H](N)C(=O)O; Dap = NC[C@H](N)C(=O)O
assay_readout: half-life (h)

molecule="CC[C@@H]1NC(=O)[C@@H](CC(C)C)NC(=O)[C@H](CCN)NC(=O)[C@@H](NC(=O)[C@H](CN)NC(=O)[C@@H](NC(=O)[C@H](CCN)NC(=O)c2ccc(Cl)cc2Cl)[C@@H](C)O)CCNC(=O)[C@H]([C@@H](C)O)NC(=O)[C@H](CCN)NC(=O)[C@H](CCN)NC1=O [BRII-693] (X1-[Dab]T[Dap][Dab][Dab][dL][Abu][Dab][Dab]T; lactam 4-C; N-terminus assumed)" assay_readout=half-life result=7.58

====

assay: Plasma pharmacokinetics after multiple ascending doses (MAD), phase 1; type: in vivo, human (healthy adult participants); details: human, plasma, iv, 100 mg, First q6h dose (day 3), 7-day MAD 100 mg q6h × 7, n = 6, arithmetic mean ± SD; read-out: AUC0-6h
Where a SMILES comes first, the peptide text is derived from it. Bridges are numbered along the chain shown (N, C = ends). [ ]: non-standard residue; d: D form. The star is where a group is joined. X1 = O=C(c1ccc(Cl)cc1Cl)*; Dab = NCC[C@H](N)C(=O)O; Abu = CC[C@H](N)C(=O)O; Dap = NC[C@H](N)C(=O)O
assay_readout: AUC(0-t)

molecule="CC[C@@H]1NC(=O)[C@@H](CC(C)C)NC(=O)[C@H](CCN)NC(=O)[C@@H](NC(=O)[C@H](CN)NC(=O)[C@@H](NC(=O)[C@H](CCN)NC(=O)c2ccc(Cl)cc2Cl)[C@@H](C)O)CCNC(=O)[C@H]([C@@H](C)O)NC(=O)[C@H](CCN)NC(=O)[C@H](CCN)NC1=O [BRII-693] (X1-[Dab]T[Dap][Dab][Dab][dL][Abu][Dab][Dab]T; lactam 4-C; N-terminus assumed)" assay_readout=AUC(0-t) result="18000 ng·h/mL"
